Record form. Attribute: protection from staurosporine-induced apoptosis EMAX, MLP29 cells. Fill in for each entry.
molecular target: native mouse MET on living cells (mouse, UniProt P16056 25-1379); assay: cell-based or functional assay
Give bare numbers, in %.

Here are 3 binders together with their reported answers.
binder="71G3 chimeric llama-human IgG1 mAb (antibody, V domains shown, human IgG1 CH1-CH2-CH3 and human CL lambda; also called 71G3 Human IgG1/lambda) VH: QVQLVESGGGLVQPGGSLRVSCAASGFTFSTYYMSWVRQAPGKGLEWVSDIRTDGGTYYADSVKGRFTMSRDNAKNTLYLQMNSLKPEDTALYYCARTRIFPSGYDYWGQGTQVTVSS VL: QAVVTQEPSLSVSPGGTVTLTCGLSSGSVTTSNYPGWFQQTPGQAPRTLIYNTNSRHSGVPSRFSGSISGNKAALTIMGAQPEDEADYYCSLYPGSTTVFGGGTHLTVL" reading=62.3
binder="71D6 chimeric llama-human IgG1 mAb (antibody, V domains shown, human IgG1 CH1-CH2-CH3 and human CL lambda; also called 71D6 Human IgG1/lambda) VH: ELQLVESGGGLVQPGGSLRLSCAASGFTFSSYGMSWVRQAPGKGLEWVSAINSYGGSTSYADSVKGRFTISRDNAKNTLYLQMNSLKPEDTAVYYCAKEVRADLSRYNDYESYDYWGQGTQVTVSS VL: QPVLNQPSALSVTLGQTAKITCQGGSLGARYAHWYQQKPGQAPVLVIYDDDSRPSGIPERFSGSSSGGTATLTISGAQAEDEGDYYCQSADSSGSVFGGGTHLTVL" reading=68.3
binder="74C8 chimeric llama-human IgG1 mAb (antibody, V domains shown, human IgG1 CH1-CH2-CH3 and human CL lambda) VH: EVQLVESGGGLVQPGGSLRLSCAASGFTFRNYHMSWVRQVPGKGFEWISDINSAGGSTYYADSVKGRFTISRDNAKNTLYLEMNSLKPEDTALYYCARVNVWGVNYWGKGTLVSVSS VL: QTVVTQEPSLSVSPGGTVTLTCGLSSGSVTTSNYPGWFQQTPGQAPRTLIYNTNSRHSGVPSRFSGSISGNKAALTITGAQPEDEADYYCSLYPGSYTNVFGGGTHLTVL" reading=37.5

Input line: Query protection from staurosporine-induced apoptosis EMAX, MLP29 cells for 76G7 chimeric llama-human IgG1 mAb (antibody, V domains shown, human IgG1 CH1-CH2-CH3 and human CL lambda) VH: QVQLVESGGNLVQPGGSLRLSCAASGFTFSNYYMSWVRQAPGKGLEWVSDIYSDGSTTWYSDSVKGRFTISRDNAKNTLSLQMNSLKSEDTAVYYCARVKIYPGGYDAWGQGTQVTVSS VL: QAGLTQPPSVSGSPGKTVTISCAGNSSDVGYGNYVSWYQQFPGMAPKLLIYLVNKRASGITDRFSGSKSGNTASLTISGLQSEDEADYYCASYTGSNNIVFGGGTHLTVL
Output line: 50.2

// data source = patent US20200407452A1
